- MEASUREMENT NOTES: chemical genetic growth profiling, strain panel (AID 1159580);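 note: tested at 20 µM; growth read once vehicle control cultures reached saturation at 30 °C; 1 = growth at the plate median or of vehicle wells; lower values mean less growth of the strain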
- CONDITION PARAMETERS: S. cerevisiae deletion strains, growth OD, locus YJR066W, strain TOR1, active compounds read low
Hit rate of the full screen: of about 5,500 compounds, about 2,000 (36%) were called active. Inconclusive results (about 18%) are left out. The list shows a part of the results.
Measured normalized growth by item

>  <MOLECULE>
NCCS(=O)(=O)O

>  <normalized growth>
0.92 (inactive)

$$$$
>  <MOLECULE>
CNCCC(Oc1ccc(C(F)(F)F)cc1)c1ccccc1 (stereo not given)

>  <normalized growth>
0.988 (inactive)

$$$$
>  <MOLECULE>
O=C(O[C@@H]1Cc2c(O)cc(O)cc2O[C@@H]1c1ccc(O)c(O)c1)c1cc(O)c(O)c(O)c1

>  <normalized growth>
0.93 (inactive)

$$$$
>  <MOLECULE>
COC(=O)[C@@H]1OC(=O)C2OC23[C@@]1(C)CCC1[C@]2(C)C(C[C@H](O)[C@]13C)C(C)(C)[C@H](OC(C)=O)C[C@@H]2OC(C)=O (stereo not given in full)

>  <normalized growth>
0.906 (inactive)

$$$$
>  <MOLECULE>
CCCc1cc(C(N)=S)ccn1

>  <normalized growth>
0.925 (inactive)

$$$$
